Record: compiled pKi on Metabotropic glutamate receptor 5 (Rattus norvegicus, UniProt P31424) from multiple reports.
pKi: −log10 of the molar value.
endpoint label: pKi

* O=S(=O)(c1ccccc1)c1cnc2cc3c(cc2c1N1CCN(c2ccccc2)CC1)OCCO3 | < 6.30
* COc1ccc2ncc(S(=O)(=O)c3ccc(Cl)cc3)c(N3CCN(Cc4ccccc4)CC3)c2c1 | < 6.30
* N#Cc1ccc2ncc(S(=O)(=O)c3ccc(F)cc3)c(N3CCOCC3)c2c1 | 6.30 to 6.70
* COc1cccc(-c2c(S(=O)(=O)c3ccc(OC)c(Cl)c3)cnc3cc(F)ccc23)c1 | 6.30 to 6.70
* O=S(=O)(c1ccc(F)c(F)c1)c1cnc2c(F)cccc2c1-c1cccc(Cl)c1 | > 6.70
* Cc1ccc(S(=O)(=O)c2sc3ncccc3c2-c2ccc(Cl)cc2)cc1C | > 6.30
* N#Cc1cccc(S(=O)(=O)c2cnc3ccc(F)cc3c2-c2ccc(Cl)cc2)c1 | > 6.70
* O=S(=O)(c1ccc(Cl)cc1)c1sc2ncccc2c1N1CCC(F)(F)CC1 | > 6.30
* O=S(=O)(c1ccc(F)c(Cl)c1)c1cnc2cc(F)ccc2c1-c1cccc(Cl)c1 | > 6.70
* N#Cc1cccc(S(=O)(=O)c2sc3ncccc3c2-c2ccccc2Cl)c1 | > 6.30
* COc1ccc(S(=O)(=O)c2cnc3cc(Cl)ccc3c2N2CCOCC2)cc1 | < 6.30
* N#Cc1cccc(S(=O)(=O)c2cnc3cc(F)ccc3c2-c2ccc(F)cc2)c1 | > 6.70
* CCOC(=O)C1CCN(c2c(S(=O)(=O)c3ccc(C)cc3)cnc3ccc(OCC)cc23)CC1 | < 6.30
* Cc1ccc(S(=O)(=O)c2cnc3cc(F)ccc3c2N2CCC(C)CC2)cc1F | > 6.70
* N#Cc1cccc(S(=O)(=O)c2cnc3c(F)cccc3c2-c2cccc(Cl)c2)c1 | > 6.70
* O=S(=O)(c1cc(Cl)cc(Cl)c1)c1cnc2c(F)cccc2c1-c1ccc(F)cc1 | > 6.70
* O=S(=O)(c1ccc(Cl)cc1)c1cnc2ccc(F)cc2c1-c1ccc(F)cc1 | < 6.30
